molecular target: PIK3CA/PIK3R1 (p110 alpha/p85 alpha) (Homo sapiens); assay: Tyrosine kinase inhibition assay; type: biochemical; conditions: PIK3CA/PIK3R1 (p110 alpha/p85 alpha); single concentration 1.0 μM; read-out: percent inhibition
Sequence (P42336 whole entry): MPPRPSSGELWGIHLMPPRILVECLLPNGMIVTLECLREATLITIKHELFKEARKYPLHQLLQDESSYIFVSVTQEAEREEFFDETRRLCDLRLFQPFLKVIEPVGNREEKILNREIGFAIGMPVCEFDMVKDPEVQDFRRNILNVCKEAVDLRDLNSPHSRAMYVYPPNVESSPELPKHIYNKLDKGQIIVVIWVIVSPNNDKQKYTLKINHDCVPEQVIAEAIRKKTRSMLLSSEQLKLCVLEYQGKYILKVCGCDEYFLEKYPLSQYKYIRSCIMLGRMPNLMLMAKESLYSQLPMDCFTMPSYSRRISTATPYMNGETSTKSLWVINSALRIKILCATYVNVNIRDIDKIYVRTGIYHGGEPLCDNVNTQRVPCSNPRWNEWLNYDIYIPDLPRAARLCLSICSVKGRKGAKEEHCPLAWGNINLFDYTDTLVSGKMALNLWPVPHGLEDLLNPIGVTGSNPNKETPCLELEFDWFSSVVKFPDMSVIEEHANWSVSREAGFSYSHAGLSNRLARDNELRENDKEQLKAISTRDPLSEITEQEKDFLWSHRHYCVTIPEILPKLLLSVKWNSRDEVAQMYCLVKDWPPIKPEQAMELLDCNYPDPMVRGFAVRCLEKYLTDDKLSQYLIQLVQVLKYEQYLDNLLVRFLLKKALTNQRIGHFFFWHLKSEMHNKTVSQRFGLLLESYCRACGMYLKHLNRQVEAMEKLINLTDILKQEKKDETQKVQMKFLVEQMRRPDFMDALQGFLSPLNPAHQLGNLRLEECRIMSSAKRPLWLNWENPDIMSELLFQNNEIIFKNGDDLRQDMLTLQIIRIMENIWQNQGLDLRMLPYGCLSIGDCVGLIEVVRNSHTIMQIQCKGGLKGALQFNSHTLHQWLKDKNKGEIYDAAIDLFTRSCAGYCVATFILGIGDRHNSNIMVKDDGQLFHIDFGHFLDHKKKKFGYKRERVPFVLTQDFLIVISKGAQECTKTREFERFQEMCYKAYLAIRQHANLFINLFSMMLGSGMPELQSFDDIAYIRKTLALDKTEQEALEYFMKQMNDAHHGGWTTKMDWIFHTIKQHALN
Sequence (P27986 whole entry partner): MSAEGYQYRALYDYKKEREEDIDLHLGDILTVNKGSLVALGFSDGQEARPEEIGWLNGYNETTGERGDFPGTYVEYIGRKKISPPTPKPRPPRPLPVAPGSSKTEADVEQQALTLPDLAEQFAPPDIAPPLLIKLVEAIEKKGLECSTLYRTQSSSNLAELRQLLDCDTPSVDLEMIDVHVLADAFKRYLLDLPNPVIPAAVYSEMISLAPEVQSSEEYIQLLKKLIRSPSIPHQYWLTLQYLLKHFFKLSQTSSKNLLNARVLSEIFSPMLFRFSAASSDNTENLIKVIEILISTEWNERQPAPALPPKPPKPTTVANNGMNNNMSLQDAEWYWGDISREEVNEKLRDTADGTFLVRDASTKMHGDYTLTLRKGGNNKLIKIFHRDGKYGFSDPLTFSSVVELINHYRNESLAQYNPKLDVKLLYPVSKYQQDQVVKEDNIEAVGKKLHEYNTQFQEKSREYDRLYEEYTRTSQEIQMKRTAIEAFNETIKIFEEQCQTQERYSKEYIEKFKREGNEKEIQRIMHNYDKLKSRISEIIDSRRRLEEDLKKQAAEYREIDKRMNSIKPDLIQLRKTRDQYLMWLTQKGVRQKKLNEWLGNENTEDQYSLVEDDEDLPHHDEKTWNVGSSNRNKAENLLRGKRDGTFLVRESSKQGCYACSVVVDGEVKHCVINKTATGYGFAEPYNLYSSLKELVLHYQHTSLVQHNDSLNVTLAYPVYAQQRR
PROPERTY: inhibition at 1 µM

Some molecules with known inhibition at 1 µM results, for comparison:
[ask] Look up inhibition at 1 µM of "COc1cc2nccc(Oc3ccc(NC(=O)C4(NC(=O)c5ccc(F)cc5)CC4)cc3F)c2cc1Oc1ccc(N)cc1F" and report it.
[reply] 10%

[ask] Look up inhibition at 1 µM of "COc1cc2nccc(Oc3ccc(NC(=O)C4(C(=O)Nc5ccc(F)cc5)CC4)cc3F)c2cc1Oc1ccc(N)cc1F" and report it.
[reply] 4%

[ask] Look up inhibition at 1 µM of "COc1cc2nccc(Oc3ccc(NC(=O)C4(NC(=O)c5ccc(F)cc5)CC4)cc3F)c2cc1Oc1c(F)cc(N)cc1F" and report it.
[reply] 3%

Further cases:
[ask] Look up inhibition at 1 µM of "COc1cc2nccc(Oc3ccc(NC(=O)C4(NC(=O)c5ccc(F)cc5)CC4)cc3F)c2cc1OC" and report it.
[reply] -6%
